- Test system: Klebsiella pneumoniae IF03317
- experimentDescription: Protection ability against systemic infection
- Format: in vivo
- conditionInfo: IF03317, iv, 168 h, ICR mice, intraperitoneal infection, compound intravenously 1 hour after infection, survival at 1 week
measuredProperty: ED50 (mg/kg)
Numbers only, in mg/kg.

CO/N=C(\C(=O)N[C@@H]1C(=O)N2C(C(=O)O)=C(CSc3cc(C(=O)O)nc4ncnn34)CS[C@H]12)c1csc(N)n1
0.1

// each compound listed below needs its ED50
1. CO/N=C(\C(=O)N[C@@H]1C(=O)N2C(C(=O)O)=C(CSc3cc(C)nc4ncnn34)CS[C@H]12)c1csc(N)n1
2. Cc1cc(SCC2=C(C(=O)O)N3C(=O)[C@@H](NC(=O)/C(=N\OC(=O)c4ccco4)c4csc(N)n4)[C@H]3SC2)n2nc(C(=O)O)nc2n1
3. CO/N=C(\C(=O)N[C@@H]1C(=O)N2C(C(=O)O)=C(CSc3cc(C)nc4nc(C(=O)O)nn34)CS[C@H]12)c1csc(N)n1
4. Cc1cc(SCC2=C(C(=O)O)N3C(=O)[C@@H](NC(=O)/C(=N\O)c4csc(N)n4)[C@H]3SC2)n2nc(C(=O)O)nc2n1

Response:
1: 0.1; 2: 7.68; 3: 0.1; 4: 7.68

---

List of MIC tested on Serratia marcescens IF03759.

Solved entries:
Cc1cc(SCC2=C(C(=O)O)N3C(=O)[C@@H](NC(=O)/C(=N\OC(=O)c4ccco4)c4csc(N)n4)[C@H]3SC2)n2nc(C(=O)O)nc2n1
< 0.05 mg/L
CO/N=C(\C(=O)N[C@@H]1C(=O)N2C(C(=O)O)=C(CSc3nc4ncc(C(=O)O)c(O)n4n3)CS[C@H]12)c1csc(N)n1
< 0.05 mg/L

Request: Quick one: MIC of `CO/N=C(\C(=O)N[C@@H]1C(=O)N2C(C(=O)O)=C(CSc3nnc4cc(C)nc(O)n34)CS[C@H]12)c1csc(N)n1` ?
Response: 0.39 mg/L

---

- System: Serratia marcescens IF03759
- experimentDescription: Antibacterial activity in vitro, agar plate dilution method (MIC)
- Type: cell-based
- conditionInfo: 10^6 cells/ml, Mueller Hinton agar, 37° C., 20 hours
measuredProperty: MIC (µg/mL)
Answers are plain numbers, in µg/mL.

Solved entries:
CO/N=C(\C(=O)N[C@@H]1C(=O)N2C(C(=O)O)=C(CSc3cc(C)nc4nc(S(=O)(=O)O)nn34)CS[C@H]12)c1csc(N)n1
0.2
Cc1cc(SCC2=C(C(=O)O)N3C(=O)[C@@H](NC(=O)/C(=N\O)c4csc(N)n4)[C@H]3SC2)n2nc(C(=O)O)nc2n1
0.2
Cc1cc(SCC2=C(C(=O)O)N3C(=O)[C@@H](NC(=O)/C(=N\OC(=O)c4cccs4)c4csc(N)n4)[C@H]3SC2)n2nc(C(=O)O)nc2n1
0.1
CO/N=C(\C(=O)N[C@@H]1C(=O)N2C(C(=O)O)=C(CSc3cc(CC(=O)O)nc4ncnn34)CS[C@H]12)c1csc(N)n1
0.2
CO/N=C(\C(=O)N[C@@H]1C(=O)N2C(C(=O)O)=C(CSc3cc(O)nc4nc(C(=O)O)nn34)CS[C@H]12)c1csc(N)n1
0.1
Cc1cc(SCC2=C(C(=O)O)N3C(=O)[C@@H](NC(=O)/C(=N\OC(=O)c4ccccc4)c4csc(N)n4)[C@H]3SC2)n2nc(C(=O)O)nc2n1
0.1
Cc1cc(SCC2=C(C(=O)O)N3C(=O)[C@@H](NC(=O)/C(=N\OC(=O)c4ccc[nH]4)c4csc(N)n4)[C@H]3SC2)n2nc(C(=O)O)nc2n1
0.2
CO/N=C(\C(=O)N[C@@H]1C(=O)N2C(C(=O)O)=C(CSc3nc(N)cc4ncnn34)CS[C@H]12)c1csc(N)n1
0.39
CO/N=C(\C(=O)N[C@@H]1C(=O)N2C(C(=O)O)=C(CSc3nn4c(=O)cc(C)nc4s3)CS[C@H]12)c1csc(N)n1
0.2

Shift focus to the following entry.
Request: Quick one: MIC of `Cc1cc(SCC2=C(C(=O)O)N3C(=O)[C@@H](NC(=O)/C(=N\OC(=O)c4ccc5c(c4)OCO5)c4csc(N)n4)[C@H]3SC2)n2nc(C(=O)O)nc2n1` ?
Response: 0.39

---

Would you mind telling me the reported MIC of each entry?
- Test system: Pseudomonas aeruginosa IF03445
- experimentDescription: Antibacterial activity in vitro, agar plate dilution method (MIC)
- Assay type: cell-based
- conditionInfo: 10^6 cells/ml, Mueller Hinton agar, 37° C., 20 hours
Numbers only, in µg/mL.

// each compound listed below needs its MIC
1. CC(=O)Oc1ccc(C(=O)O/N=C(\C(=O)N[C@@H]2C(=O)N3C(C(=O)O)=C(CSc4cc(C)nc5nc(C(=O)O)nn45)CS[C@H]23)c2csc(N)n2)cc1OC(C)=O [Compound 27]
2. CO/N=C(\C(=O)N[C@@H]1C(=O)N2C(C(=O)O)=C(CSc3nnc4cc(C)nc(O)n34)CS[C@H]12)c1csc(N)n1 [Compound 23]
3. CO/N=C(\C(=O)N[C@@H]1C(=O)N2C(C(=O)O)=C(CSc3cc(C(=O)O)nc4ncnn34)CS[C@H]12)c1csc(N)n1 [Compound 6]
4. CO/N=C(\C(=O)N[C@@H]1C(=O)N2C(C(=O)O)=C(CSc3nc(N)cc4ncnn34)CS[C@H]12)c1csc(N)n1 [Compound 22]
5. CO/N=C(\C(=O)N[C@@H]1C(=O)N2C(C(=O)O)=C(CSc3cc(C)nc4nc(C(=O)O)nn34)CS[C@H]12)c1csc(N)n1 [Compound 2]
6. Cc1cc(SCC2=C(C(=O)O)N3C(=O)[C@@H](NC(=O)/C(=N\OC(=O)c4ccccc4)c4csc(N)n4)[C@H]3SC2)n2nc(C(=O)O)nc2n1 [Compound 25]

Response:
[0.39, 50, 6.25, 50, 12.5, 50]

// each compound listed below needs its MIC
1. CO/N=C(\C(=O)N[C@@H]1C(=O)N2C(C(=O)O)=C(CSc3cc(C(=O)O)nc4nnc(C)n34)CS[C@H]12)c1csc(N)n1 [Compound 20]
2. CO/N=C(\C(=O)N[C@@H]1C(=O)N2C(C(=O)O)=C(CSc3cc(OC)nc4ncnn34)CS[C@H]12)c1csc(N)n1 [Compound 16]
3. CO/N=C(\C(=O)N[C@@H]1C(=O)N2C(C(=O)O)=C(CSc3nn4c(=O)cc(C)nc4s3)CS[C@H]12)c1csc(N)n1 [Compound 24]
4. Cc1cc(SCC2=C(C(=O)O)N3C(=O)[C@@H](NC(=O)/C(=N\OC(=O)c4ccc[nH]4)c4csc(N)n4)[C@H]3SC2)n2nc(C(=O)O)nc2n1 [Compound 26]

Response:
1. 12.5
2. 100
3. 50
4. 25

---

List of MIC tested on Serratia marcescens IF03759.
Numbers only, in µg/mL.

CO/N=C(\C(=O)N[C@@H]1C(=O)N2C(C(=O)O)=C(CSc3cc(C)nc4nc(CC(=O)O)nn34)CS[C@H]12)c1csc(N)n1 [Compound 4]
0.1
CO/N=C(\C(=O)N[C@@H]1C(=O)N2C(C(=O)O)=C(CSc3cc(C(=O)O)nc4nnc(C)n34)CS[C@H]12)c1csc(N)n1 [Compound 20]
0.2
CO/N=C(\C(=O)N[C@@H]1C(=O)N2C(C(=O)O)=C(CSc3c(C(=O)O)cnc4nc(C(=O)O)nn34)CS[C@H]12)c1csc(N)n1 [Compound 7]
0.39

Request: Quick one: MIC of CO/N=C(\C(=O)N[C@@H]1C(=O)N2C(C(=O)O)=C(CSc3cc(C)nc4ncnn34)CS[C@H]12)c1csc(N)n1 [Compound 1] ?
Response: 0.2

---

- Test system: Serratia marcescens IF03759
measuredProperty: MIC (µg/mL)
One number for each entry, in µg/mL.

CO/N=C(\C(=O)N[C@@H]1C(=O)N2C(C(=O)O)=C(CSc3c(C(=O)O)cnc4ncnn34)CS[C@H]12)c1csc(N)n1 [Compound 3]
0.78

// each molecule listed below needs its MIC
1. CO/N=C(\C(=O)N[C@@H]1C(=O)N2C(C(=O)O)=C(CSc3cc(C(=O)O)nc4ncnn34)CS[C@H]12)c1csc(N)n1 [Compound 6]
2. CO/N=C(\C(=O)N[C@@H]1C(=O)N2C(C(=O)O)=C(CSc3cc(OC)nc4ncnn34)CS[C@H]12)c1csc(N)n1 [Compound 16]

Response:
[0.2, 0.39]

---

- Test system: Pseudomonas aeruginosa IF03445
- experimentDescription: Antibacterial activity in vitro, agar plate dilution method (MIC)
- Format: cell-based
- conditionInfo: 10^6 cells/ml, Mueller Hinton agar, 37° C., 20 hours
- Method: Antibacterial activity in vitro was determined in accordance with the agar plate dilution method. A platinum loop each of test bacteria (10^6 cells/ml), cultured in Mueller Hinton broth, was inoculated on Mueller Hinton agar plates which contained test compounds at various concentrations. After cultivating at 37° C. for 20 hours, the minimum inhibitory concentration (MIC μg/ml) was determined.
measuredProperty: MIC (µg/mL)
One number for each entry, in µg/mL.

Solved entries:
CO/N=C(\C(=O)N[C@@H]1C(=O)N2C(C(=O)O)=C(CSc3cc(C)nc4nc(S(=O)(=O)O)nn34)CS[C@H]12)c1csc(N)n1
100
CO/N=C(\C(=O)N[C@@H]1C(=O)N2C(C(=O)O)=C(CSc3ccnc4nc(C(=O)O)nn34)CS[C@H]12)c1csc(N)n1
50

Shift focus to the following entry.
Request: Quick one: MIC of `Cc1cc(SCC2=C(C(=O)O)N3C(=O)[C@@H](NC(=O)/C(=N\OC(=O)c4ccco4)c4csc(N)n4)[C@H]3SC2)n2nc(C(=O)O)nc2n1` ?
Response: 100
